List of raw data 1 values.
target-system: tau (Homo sapiens, UniProt P10636)
Sequence (P10636 623-695 limits assumed): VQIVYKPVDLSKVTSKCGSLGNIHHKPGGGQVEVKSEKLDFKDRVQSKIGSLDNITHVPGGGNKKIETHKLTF
test-summary: MCE Phenols Library screening, tau biosensor cell seeding assay (AvZ)
Format: cell-based
condition-summary: puncta, replicate 1
Reply briefly: the number, and no unit.

In the examples that follow, each entry is paired with its recorded raw data 1.
{"columns": ["molecule", "attribute-measured", "measured-value"],
 "data": [
  ["O=c1cc(-c2ccccc2)oc2cc(O[C@@H]3O[C@H](CO[C@@H]4O[C@H](CO)[C@@H](O)[C@H](O)[C@H]4O)[C@@H](O)[C@H](O)[C@H]3O)c(O)c(O)c12", "raw data 1", 24381.7],
  ["O=C(O)[C@H]1O[C@@H](Oc2c(-c3ccc(O)c(O)c3)oc3cc(O)cc(O)c3c2=O)[C@H](O)[C@@H](O)[C@@H]1O", "raw data 1", 39402.1],
  ["OC[C@H]1O[C@@H](Oc2cc(O)cc(/C=C/c3ccc(O)cc3)c2)[C@H](O)[C@@H](O)[C@@H]1O (mixture of isomers) [(E/Z)-Polydatin]", "raw data 1", 32412.5],
  ["COc1cc(-c2coc3c([C@@H]4O[C@H](CO)[C@@H](O)[C@H](O)[C@H]4O)c(O)ccc3c2=O)ccc1O", "raw data 1", 33160],
  ["COc1ccc2c(c1)OC[C@@H](c1cc(O)c(OC)c(OC)c1O)C2 [Colutehydroquinone]", "raw data 1", 30747.2],
  ["C=CCc1ccc(O)c(-c2cc(CC=C)ccc2O)c1", "raw data 1", 29891.7],
  ["COc1ccc(C(C)=O)c(O)c1O [2,3-Dihydroxy-4-methoxyacetophenone]", "raw data 1", 30969.9],
  ["COc1cc2c(cc1O)CC[C@@H]1[C@@H]2CC[C@]2(C)[C@@H](O)CC[C@@H]12", "raw data 1", 46109.4]
]}

## Input Look up raw data 1: O=c1cc(-c2ccc(O)cc2)oc2cc(O)c([C@@H]3O[C@H](CO)[C@@H](O)[C@H](O)[C@H]3O[C@@H]3O[C@H](CO)[C@@H](O)[C@H](O)[C@H]3O)c(O)c12 [Meloside A]
## Output 10691.8

## Input Let us now turn to "CCCC(=O)c1c(O)c(Cc2c(O)c(Cc3c(O)c(C)c(OC)c(C(=O)CCC)c3O)c(O)c(C(=O)[C@@H](C)CC)c2O)c(O)c(C)c1OC"
## Output 7875.9

## Input Let us now turn to O=c1cc(-c2ccc(O)cc2)oc2cc(O)c([C@@H]3O[C@H](CO)[C@@H](O)[C@H](O)[C@H]3O[C@@H]3OC[C@H](O)[C@H](O)[C@H]3O)c(O)c12 [Isovitexin 2''-O-arabinoside]
## Output 15471.3
